Consider the following binders; for each one, report its corrected association response.
- Measurement target: recombinant human OX40 (Acro Biosystems, cat. no. OXO-H5224) (human) (UniProt P43489)
- Sequence (P43489 29-216 limits assumed): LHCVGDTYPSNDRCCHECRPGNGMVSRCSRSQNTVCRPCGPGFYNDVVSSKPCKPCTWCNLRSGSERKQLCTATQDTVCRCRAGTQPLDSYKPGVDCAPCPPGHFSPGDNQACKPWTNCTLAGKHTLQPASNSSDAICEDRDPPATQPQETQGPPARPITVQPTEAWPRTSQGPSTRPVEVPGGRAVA
- Procedure text: BLI cross-block; competitor (immobilized 1st Ab): IgG1-CD134-ABBV368
One number for each entry, in nm.

binder="IgG1-CD134-MEDI0562 (antibody, INN chains, looked up, V domains shown, IgG1) VH: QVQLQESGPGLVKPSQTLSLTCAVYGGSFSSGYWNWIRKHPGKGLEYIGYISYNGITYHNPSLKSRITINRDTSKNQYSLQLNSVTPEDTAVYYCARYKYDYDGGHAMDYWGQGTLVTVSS VL: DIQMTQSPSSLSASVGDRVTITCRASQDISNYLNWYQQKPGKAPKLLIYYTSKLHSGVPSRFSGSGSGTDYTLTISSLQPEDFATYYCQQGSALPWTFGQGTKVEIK" measurement_kind="corrected association response" assay_result=-0.02
binder="IgG1-CD134-GBR830 (antibody, INN chains, looked up, V domains shown, IgG1) VH: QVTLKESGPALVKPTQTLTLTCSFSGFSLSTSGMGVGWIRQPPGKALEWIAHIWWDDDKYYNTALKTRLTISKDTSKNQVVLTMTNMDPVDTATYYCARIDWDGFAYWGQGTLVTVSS VL: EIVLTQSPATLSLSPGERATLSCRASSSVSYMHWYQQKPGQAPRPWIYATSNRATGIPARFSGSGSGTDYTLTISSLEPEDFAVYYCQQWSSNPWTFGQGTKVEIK" measurement_kind="corrected association response" assay_result=-0.01
binder="IgG1-CD134-ABBV368 (antibody, INN chains, looked up, V domains shown, IgG1) VH: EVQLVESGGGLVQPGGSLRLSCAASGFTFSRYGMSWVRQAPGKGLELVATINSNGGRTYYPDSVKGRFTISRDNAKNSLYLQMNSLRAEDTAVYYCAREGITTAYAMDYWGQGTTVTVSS VL: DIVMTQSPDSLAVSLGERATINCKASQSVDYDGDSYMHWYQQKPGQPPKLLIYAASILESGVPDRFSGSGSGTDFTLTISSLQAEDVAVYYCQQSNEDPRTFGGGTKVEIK" measurement_kind="corrected association response" assay_result=-0.04

// next item, corrected association response requested
INPUT: Give the measured corrected association response of IgG1-CD134-RG7888 (antibody, INN chains, looked up, V domains shown, IgG1) VH: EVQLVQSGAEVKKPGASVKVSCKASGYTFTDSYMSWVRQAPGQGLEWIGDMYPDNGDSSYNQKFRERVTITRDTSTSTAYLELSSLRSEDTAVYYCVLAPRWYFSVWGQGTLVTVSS VL: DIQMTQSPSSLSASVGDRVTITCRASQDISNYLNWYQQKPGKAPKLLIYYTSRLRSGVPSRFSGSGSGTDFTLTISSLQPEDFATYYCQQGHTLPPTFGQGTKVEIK .
OUTPUT: 0.01
